// values below are reported viability
assay: reversal of MRP1-mediated doxorubicin resistance, pilot screen, H69AR cells, doxorubicin co-treatment (AID 601); settings: H69AR cells, CellTiter-Glo, 72 h; compound alone cytotoxicity; at 10 µM
PARAMETER_MEASURED: viability

MOLECULE | ENDPOINT_RESULT
COc1cc2c(cc1NC(=O)CN1CCN(S(=O)(=O)c3ccc(F)cc3)CC1)oc1ccccc12 | 95.7%
Cc1ccc(NC(=O)CS(=O)CC(=O)NCC2CCCO2)cc1 (centres undefined) | 96.8%
Cc1cc(NC(=O)c2ccccc2Oc2ccccc2)no1 | 110%
O=C1CC(c2cccc(Cl)c2)Cc2nc(N3CCN(c4ccccc4)CC3)ncc21 (centres undefined) | 91.3%
CCn1c(SCC(=O)c2ccc(OC)cc2)nnc1C(C)NC(=O)c1ccc(OC)cc1 (centres undefined) | 88.2%
CCOc1ccc(N(CC)C(=O)COc2cc(=O)n(C)c3ccccc23)cc1 | 86.1%
O=C1C(Cl)=C(N2CCOCC2)C(=O)N1CCc1ccccc1 | 71.3%
CCOc1ccccc1CNC(=O)CCN1C(=O)COc2ccccc21 | 92.9%
COc1ccc(-c2noc(-c3cc(Cl)ccc3Cl)n2)cc1OC | 107%
Cc1nn(C)c(C)c1CNC(=O)c1cc2n(n1)C(C(F)(F)F)CC(c1cccs1)N2 (centres undefined) | 112%
COc1cccc(OC)c1C(=O)N1CCN(S(=O)(=O)c2ccc(C)cc2)CC1 | 91.4%
COc1ccc2nc3oc(C(=O)NC4CCN(Cc5ccccc5)CC4)cc3cc2c1 | 82.6%
CC(C)=CCCC(C)NC(=O)NC1CCCCC1 (centres undefined) | 107%
Cc1ccc(S(=O)(=O)NCCNC(=O)c2ccccc2)cc1 | 99.2%
CCCCCc1c(O)c2ccccc2[nH]c1=O | 98.1%
OC(CN1CCN(c2ccccn2)CC1)Cn1c2ccccc2c2ccccc21 (centres undefined) | 82.1%
CN(C)c1nc(Nc2ccc(Cl)cc2)nc(OCC#N)n1 | 81.8%
Nn1c(SCc2csc(-c3ccccc3)n2)nnc1-c1cccs1 | 97.3%
S=c1[nH]nc(Cc2ccccc2)n1-c1ccccc1 | 92.9%
COc1ccc(CC(NC(C)=O)C(=O)NC2CCN(C(=O)Nc3ccc(C#N)cc3)CC2)cc1OC (centres undefined) | 94.2%
O=C(c1ccco1)N1CCN(S(=O)(=O)c2ccc(Oc3ccccc3)cc2)CC1 | 90.6%
COc1ccc(OC)c(NC(=O)C2CCN(c3cc(-c4ccccc4)nc4ncnn34)CC2)c1 | 75.4%
CN(C(=O)c1ccccc1Cl)c1ccccc1 | 106%
COC(=O)C1=C(C)NC(C)=C(C(=O)OC)C1c1cc2cc(C)ccc2[nH]c1=O | 79.4%
CCCn1c(N2CCN(CC(=O)Nc3ccc4c(c3)OCCO4)CC2)nc2ccccc21 | 88.9%
O=c1[nH]cnc2c1nc(SCc1ccccc1)n2C1OC(CO)C(O)C1O (centres undefined) | 101%
CC1=C(C(=O)NCc2ccco2)C2(CCC(C)CC2)OC1=O (centres undefined) | 84%
COc1cc(C2C(C#N)=C(N)OC3=C2C(=O)CCC3)ccc1OC(=O)N1CCOCC1 (centres undefined) | 87.3%
O=C(CSCc1cnn(-c2ccccc2)c1-n1cccc1)NCC1CCCO1 (centres undefined) | 93.7%
O=C(COc1ccccc1)Nc1ccc(-c2nnc(-c3ccco3)o2)cc1 | 95.5%
CCOC(=O)N1CCC(N2CC34C=CC(O3)C(C(=O)O)C4C2=O)CC1 (centres undefined) | 100%
CCOc1cc(C2C(C(=O)OC(C)C)=C(C)N=C3SCCC(=O)N32)ccc1OC(C)=O (centres undefined) | 93.3%
O=C(Nc1ccc(CN2CCCCC2)cc1)c1ccc2c(c1)OCO2 | 91.6%
Cc1cc2cc(CN(CC3CCCO3)C(=O)c3cnccn3)c(=O)[nH]c2cc1C (centres undefined) | 92.3%
C=CCOc1ccc(C2C(C(=O)c3ccco3)=C(O)C(=O)N2Cc2cccnc2)cc1 (centres undefined) | 90.9%
CCCC(=O)N=C1SC2CS(=O)(=O)CC2N1c1ccc(CC)cc1 (centres undefined) | 93.2%
Cc1ccccc1-n1c(=O)cc(N2CCN(C(=O)c3ccco3)CC2)[nH]c1=O | 98.3%
CN1CCCC(OC(=O)COc2ccc(Br)cc2)C1 (centres undefined) | 89.7%
CCCN1C2CCCC1CC(NC(=O)c1ccccc1F)C2 (centres undefined) | 106%
Clc1ccccc1OCc1nn2c(-c3ccncc3)nnc2s1 | 98.2%
COc1ccc(C(=O)N(CCN2CCOCC2)CC(=O)NC2CCCC2)cc1OC | 91.6%
Cc1ccc(NC(=O)C2CCCN2S(=O)(=O)c2cccc3cccnc23)cc1F (centres undefined) | 93.7%
Cc1cc(C(=O)OCC(=O)N2c3ccccc3CC2C)c(C)o1 (centres undefined) | 100%
O=C(NCc1ccco1)C1CC(=O)N(c2ccc(F)cc2)C1 (centres undefined) | 108%
